The reported numbers originate from patent US20180171001A1.

Assignment: determine reported neutralization IC50 for the given binders.
study system: Env of HIV-1 strain 231965.c1 (HIV-1)
measurement notes: cell-based or functional assay
Answers are plain numbers, in µg/mL.

// worked examples, neutralization IC50 included
# binder, unit text, neutralization IC50
records = [
    ("γ52κ11 (antibody, V domains shown) VH: QIHLVQSGTEVKKPGSSVTVSCKAYGVNTFGLYAVNWVRQAPGQSLEYIGQIWRWKSSASHHFRGRVLISAVDLTGSSPPISSLEIKNLTSDDTAVYFCTTTSTYDRWSGLHHDGVMAFSSWGQGTLISVSA VL: DIQMTQSPSTLSASVGGTVRISCRASQSITGGWLAWYHQRPGKAPRLLIYRGSRLLGGVPSRFSGSAAGTDFTLTIANLQAEDFGTFYCQQYDTYPGTFGQGTKVEVKR", "µg/mL", 0.298),
    ("γ46κ18 (antibody, V domains shown) VH: QIHLVQSGTEVKKPGSSVTVSCKAYGVNTFGLYAVNWVRQAPGQGLEYIGQIWRWKSSASHHFRGRVLISAVDLTGSSPPISSLEIKNVTSDDTAVYFCTTTSTYDKWSGLHHDGVVAFSSWGQGTLISVSA VL: DIQMTQSPSTLSASVGDTVRISCRASQSITGGWLAWYHQRPGKAPRLLIYRGSRLLGGVPSRFSGSAAGADFTLTIANLQAEDFGTFYCQQYDTYPGTFGQGTKVEVKR", "µg/mL", 4.16),
    ("γ8κ3 (antibody, V domains shown) VH: QIHLVQSGTGVKKPGSSVTVSCKAYGVNTFGLYAVNWVRQAPGQGLEYIGQIWRWKSSASHHFRGRVLISAVDLTGSSPPITSLEIKNVTSDDTAVYFCTTTSTYDKWSGLYHDGVMAFSSWGQGTLISVSA VL: DIQMTQSPSTLSASIGDTVRISCRASQSITGNWLAWYHQRPGKAPRLLIYRGSRLLGGVPSRFSGSAAGTDFTLTIANLQAEDFGTFYCQQYDTYPGTFGQGTKVEVKR", "µg/mL", 3.48),
    ("γ52κ5 (antibody, V domains shown) VH: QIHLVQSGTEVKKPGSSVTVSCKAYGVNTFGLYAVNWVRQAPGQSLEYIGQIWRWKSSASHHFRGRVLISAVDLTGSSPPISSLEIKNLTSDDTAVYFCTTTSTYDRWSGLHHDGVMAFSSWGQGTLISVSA VL: DIQMTQSPSTLSASTGDTVRISCRASQSITGNWVAWYQQRPGKAPRLLIYRGAALLGGVPSRFRGSAAGTDFTLTIGNLQAEDFGTFYCQQYDTYPGTFGQGTKVEVKR", "µg/mL", 0.094),
    ("γ46κ11 (antibody, V domains shown) VH: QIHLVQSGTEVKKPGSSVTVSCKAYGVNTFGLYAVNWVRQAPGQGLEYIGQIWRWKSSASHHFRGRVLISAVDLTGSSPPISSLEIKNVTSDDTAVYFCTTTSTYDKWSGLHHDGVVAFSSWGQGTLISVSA VL: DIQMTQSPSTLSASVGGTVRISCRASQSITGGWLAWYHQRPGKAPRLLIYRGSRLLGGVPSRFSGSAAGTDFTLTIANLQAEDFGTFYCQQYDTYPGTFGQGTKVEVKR", "µg/mL", 2.95),
]

Count: 2. Required value per item: neutralization IC50.
1. γ3κ18 (antibody, V domains shown) VH: QIHLVQSGTEVKKPGSSVTVSCKAYGVNTFGLYAVSWVRQAPGQRLEYIGQIRRWKSSASHHFRGRVTVSAVDPTGSSPPISSLEIRDLTTDDTAVYFCTTTSTSDYWSGLHNERGTAFSSWGQGTLISVSA VL: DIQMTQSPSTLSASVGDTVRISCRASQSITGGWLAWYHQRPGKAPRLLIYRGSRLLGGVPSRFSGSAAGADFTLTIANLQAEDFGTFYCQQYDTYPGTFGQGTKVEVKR
2. γ15κ61 (antibody, V domains shown) VH: QIHLVQSGTEVKKPGSSVTVSCKAYGVNTFGLYAVNWVRQAPGQSLEYIGQIWRWKSSASHHFRGRVIISAVDLTGSSPPISSLEIKNLTSDDTAVYFCTTASTYDKWSGLHHDGVMAFSSWGQGTLISVSA VL: DIQMTQSPSTLSASIGDTVRISCRASQSITGNWVAWYHQRPGKAPRLLIYRGAALLGGVPSRFSGSAAGTDFTLTIGNLQAEDFGTFYCQQYDTYPGTFGQGTKVEVKR

Found:
0.163
5.23
